Provenance of the data: patent US11873298B2

Test system: yeast strains expressing the human ApoE4
experimental-protocol: Yeast ApoE4 toxicity rescue assay (OD600 growth)
run-parameters: 24 h, read-out: ApoE4 Emax
Please go through the items and note down their Emax.

Previously resolved entries follow.
COc1ccc(-c2noc(C3CCN(C(=O)CNC(=O)c4cccc(C)c4)CC3)n2)cc1OC | 771%
CCOc1ccc(-c2noc(C3CCN(C(=O)CNC(=O)c4ccccc4)CC3)n2)cc1F | 704%
COc1ccc(-c2noc(C3CCN(C(=O)[C@H]4CC(=O)N(c5ccccc5)C4)CC3)n2)cc1OC | 779%

Exercise: Lab request: please report Emax under test system yeast strains expressing the human ApoE4 for COc1ccc(-c2noc(C3CCN(C(=O)C4CC(=O)N(c5ccc(C)c(C)c5)C4)CC3)n2)cc1OC (stereo not shown)
Solution: 891%
